Source listed as patent US10227388B2.

molecular target: HLA-A*02:01 (Homo sapiens, UniProt P04439, D140Y/D185E/D98H/E176V/E277Q/G131W/G231S/I119V/I121R/I166T/I218V/L300P/L318F/N151K/N90K/P208A/P217A/Q86G/Q94H/R138H/R169H/T345S); assay: MHC binding assay (UV-ligand exchange, ELISA, peptide exchange yield); settings: binding of HLA-class I restricted peptides to HLA-A*02:01
ASSAY_READOUT: Peptide exchange (MHC class I binding score, peptide exchange yield)

506 (KLLGKVETA; listed as Homo sapiens) [compound 506]	″+++″ (≥50% = +++)
389 (LLADVTHLL; listed as Homo sapiens) [compound 389]	″++″ (≥20% = ++)
76 (ILIDSIYKV; listed as Homo sapiens) [compound 76]	″+++″ (≥50% = +++)
261 (YVLEFLEEI; listed as Homo sapiens) [compound 261]	″++″ (≥20% = ++)
41 (SLMPHIPGL; listed as Homo sapiens) [compound 41]	″+++″ (≥50% = +++)
148 (ALNPEIVSV; listed as Homo sapiens) [compound 148]	″++″ (≥20% = ++)
393 (GLLDTQTSQVLTA; listed as Homo sapiens) [compound 393]	″++″ (≥20% = ++)
127 (KIGDEPPKV; listed as Homo sapiens) [compound 127]	″++″ (≥20% = ++)

With those in mind, consider the next substance.
Which Peptide exchange (MHC class I binding score, peptide exchange yield) is reported for this substance? 579 (NLMEMVAQL; listed as Homo sapiens) [compound 579]
″++″ (≥20% = ++)
